Measured values drawn from ChEMBL document CHEMBL4177651 for this set.

test: Binding affinity to 1A1 Bacillus subtilis xpt-pbuX RNA guanine riboswitch; conditions: read-out: Kd(app)
attribute.measured: Kd (nM)
Expressed in nM, but write only the number.

I have this compound here, ONc1ncnc2[nH]cnc12 , and I need its recorded Kd.
20

----------
assay: Binding affinity bacterial RNA purine riboswitch sequence by isothermal titration calorimetry; design: species or system Bacteria; details: read-out: Kd(app)
attribute.measured: Kd (nM)
Express your answer in nM, writing the number without its unit.

Dear colleague, I am looking for the recorded Kd of the following compound: Nc1nc(N)c2nc[nH]c2n1 [2,6-DIAMINOPURINE]
4

----------
Entries annotated with measured Ki
test: Inhibition of poly(CUG) RNA (unknown origin) splicing expressed in human Hela cells assessed as decrease in toxicity after 24 hrs by WST-1 assay; format: cell-based
The reply should contain only the number, in µM.

{"columns": ["smiles.string", "endpoint.unit", "Ki"],
 "data": [
  ["O=C(Nc1ccc(-c2nc3ccccc3[nH]2)cc1)c1ccc(-c2ccc(Cl)cc2)o1", "µM", 128]
]}

Which value of Ki has been reported for Nc1cccc(-c2nc3cc(-c4ccc5[nH]c(-c6cccc(N)c6)nc5c4)ccc3[nH]2)c1 in the records?
50
